Source: ChEMBL document CHEMBL4422693

- TEST_PROTOCOL: Hemolytic activity in human RBC after 1 hr by spectrophotometric method
- Format: ADME, cell-based, Erythrocyte
- RECORDED_CONDITIONS: human red blood cells (erythrocytes)
For each record, write down the corresponding HC50 at 1 h.
Report as a plain number; the unit µg/mL is understood.

Lookup: So what's the measured HC50 at 1 h for this one? C[C@@H]1O[C@@H](OC[C@H]2O[C@@H](OCCc3ccc(O)c(O)c3)[C@H](O)[C@@H](O)[C@@H]2OC(=O)/C=C/c2ccc(O)c(O)c2)[C@H](O)[C@H](O)[C@H]1O [FORSYTHIASIDE]
Found: 1000

Lookup: For C[C@@H]1O[C@@H](O[C@@H]2[C@@H](O)[C@H](OCCc3ccc(O)c(O)c3)O[C@H](CO)[C@H]2OC(=O)/C=C/c2ccc(O)c(O)c2)[C@H](O)[C@H](O)[C@H]1O [ACETOSIDE] then?
Found: 1000
